test system: CAKI-1 renal; assay: NCI-60 one-dose screen, 48 h; conditions: 10 µM unless noted
This is part of a sample that, as a whole, favours compounds with a hit. Of some 83,000 tested, about 20% had one in any assay. Activity calls are given as the source filed them. Rule for the calls: active = growth percent below 10; inactive = the rest.
Reply using exactly one outcome from y for active, n for inactive

line.notation | target.or.system | answer.label
O=C1c2ccccc2C(=O)c2c(O)c(Cl)cc(O)c21 | CAKI-1 renal | n
Clc1ccccc1C(c1ccccc1)(c1ccccc1)n1ccnc1 | CAKI-1 renal | n

Now examine the next entry.
Q. Please indicate how the test categorized CN=C(N)N/N=C(\c1ccccc1)c1ccc(Br)cc1 .
A. y

====

System: RPMI-8226 leukemia
Experiment: NCI-60 one-dose screen, 48 h (100 = growth as untreated, 0 = no growth, -100 = all killed)
Conditions: 10 µM unless noted
Experimental: Growth inhibition of the RPMI-8226 human tumor cell line is measured as a screen for anti-cancer activity. Cells are grown in 96 well plates and exposed to the test compound for 48 hours. Compounds are tested at a single concentration, which is 10^-5 M for most compounds. The reported endpoint is percent growth (GI% or GIPRCNT), where numbers from 0 - 100% represent growth inhibition, and numbers from -100% - 0 represent cell death. For example, a value of 40 represents 60% growth inhibition. […]
The panel holds about 83,000 compounds, 20% with a hit somewhere; the sample as a whole holds those more often.
Param threshold (30%) applies to growth; output 1 when value >= threshold, 0 when value < threshold.

Q. Is growth at least 30%? Consider COC(=O)C(=[N+]=[N-])C(=O)c1ccc([N+](=O)[O-])o1
A. 1

Q. Input CN=C(N)N/N=C(\c1ccccc1)c1ccc(Br)cc1
A. 0

Q. Input [Cl-].[Rh+3].c1ccc(-c2ccnc3c2ccc2c(-c4ccccc4)ccnc23)cc1.c1ccc(-c2ccnc3c2ccc2c(-c4ccccc4)ccnc23)cc1.c1ccc(-c2ccnc3c2ccc2c(-c4ccccc4)ccnc23)cc1
A. 1

Q. Input CCOC(=O)NC(/C=C/c1ccccc1)NC(=O)OCC
A. 1

Q. Input OC(c1cc(C23CC4CC(CC(C4)C2)C3)nc2c(Cl)cc(Cl)cc12)C1CCCCN1 (stereo not drawn)
A. 0

Q. Input CCCCCCCCC(=O)OCCCC(CCC(CCC1CCCO1)OC(=O)CCCCCCCC)OC(=O)CCCCCCCC (stereo not drawn)
A. 1

Q. Input O=Nc1ccc2ccccc2c1O
A. 1

Q. Input Cc1c(O)ccc(SC#N)c1C
A. 1

Q. Input CCCCCCCCCCCC[n+]1ccccc1 (tested in a mixture with another compound)
A. 0

Q. Input O=C(/C=C/C(Cl)(Cl)Cl)Nc1ccc(Cl)cc1
A. 1

Q. Input CC/C(=C(/CC)c1ccc(O)cc1)c1ccc(O)cc1
A. 1

Q. Input CC1=CC(=O)C=CC1(C)C(Cl)(Cl)Cl (stereo not drawn)
A. 1

Q. Input O=C(c1ccccc1)C(Br)[N+](=O)[O-] (stereo not drawn)
A. 1

====

test system: MOLT-4 leukemia; assay: NCI-60 one-dose screen, 48 h; conditions: 10 µM unless noted
The panel holds about 83,000 compounds, 20% with a hit somewhere; the sample as a whole holds those more often. The source made the active and inactive calls. How the source made its calls: active means growth percent below 10; inactive means the rest.
Reply using exactly one outcome from t (active), f (inactive)

molecule | answer.label
CN(C)c1ccc(/C=C/c2ccnc3ccccc23)cc1 | f
O=Nc1ccc2ccccc2c1O | f
Nc1nc(N)c2cc(Sc3cccc(C(F)(F)F)c3)ccc2n1 | f
COC(=O)Nc1nc2ccc(C3(c4ccc(F)cc4)OCCO3)cc2[nH]1 | f
O=C1C(=O)c2cc([N+](=O)[O-])ccc2-c2ccccc21 | t
O=[N+]([O-])C=C(c1ccccc1)c1ccccc1 | f

Q. Please indicate how the test categorized O=[N+]([O-])c1ccc(N2CCN(Cc3ccccc3)CC2)c2c1no[n+]2[O-] .
A. t

Q. Input Cc1cc(C(N)=O)cc(C)c1C(=O)OCCCl
A. f

Data provenance is PubChem BioAssay (NCI).
